Target: UniProtKB P29597
Test: pSTAT4 Cell Assay (MSD, NK92 cells)
Type: cell-based
Conditions: MSD
Examples of compounds with documented IC50 follow.

Example entries begin here.
INSERT INTO assay_data (compound, parameter_measured, endpoint_result) VALUES
  ('CC(=O)Nc1cc(Nc2cc(C)nc(C(C)(F)F)n2)c(-c2cccc(C(C)O)n2)cn1 (racemic)', 'IC50', '≤ 10 nM'),
  ('CC(=O)Nc1cc(Nc2ccnc(C(C)(F)F)n2)c(-c2ccc(C#N)cn2)cn1', 'IC50', '≤ 10 nM'),
  ('C=C(F)c1cncc(Nc2cc(NC(C)=O)ncc2OCCOC)n1', 'IC50', '100 to 1000 nM');

We now examine a further compound.
Param readout = IC50; param system = UniProtKB P29597; param query = COc1nc(-c2cnc(NC(C)=O)cc2Nc2ccnc(C(C)(F)F)n2)cs1 ; response: value ≤ 10 nM

###

Molecular target: JH2 domain of human Tyk2 (Homo sapiens (Human), UniProt P29597)
Sequence (P29597 575-876): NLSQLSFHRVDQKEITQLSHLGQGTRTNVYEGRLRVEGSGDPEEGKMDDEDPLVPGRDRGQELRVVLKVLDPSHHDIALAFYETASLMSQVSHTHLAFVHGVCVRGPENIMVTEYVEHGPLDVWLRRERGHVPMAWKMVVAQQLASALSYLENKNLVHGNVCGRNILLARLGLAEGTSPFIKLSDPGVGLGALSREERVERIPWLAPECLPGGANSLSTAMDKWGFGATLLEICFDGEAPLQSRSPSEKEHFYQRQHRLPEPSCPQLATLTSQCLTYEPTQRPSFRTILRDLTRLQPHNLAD
Test: JH2 Biochemical Assay (TR-FRET probe displacement)
Assay type: binding
Details: TR-FRET probe displacement, JH2 domain of human Tyk2
pIC50: −log10 of the molar value.
Examples of molecules with documented pIC50 follow.

Example entries begin here.
INSERT INTO results (molecule, endpoint_result) VALUES
  ('CCN1CCn2nc(-c3cnc(NC(C)=O)cc3Nc3cc(C)nc(C(C)(F)F)n3)cc2C1', '≥ 8.00'),
  ('CC(=O)Nc1cc(Nc2cc(C)nc(C(C)(F)F)n2)c(OC[C@@H]2CCCO2)cn1 (single isomer, unassigned)', '≥ 8.00'),
  ('CC(=O)Nc1cc(Nc2cc(C)nc(C(C)(F)F)n2)c(Oc2cncc(C)n2)cn1', '≤ 6.00');

We now examine a further molecule.
Param readout = pIC50; param system = JH2 domain of human Tyk2 (Homo sapiens (Human), UniProt P29597); param query = CCc1cc(Nc2cc(NC(C)=O)ncc2-c2nnc(C)o2)nc(C(C)(F)F)n1 ; response: value ≥ 8.00

###

Biological target: Tyk2 (Homo sapiens (Human), UniProt P29597)
Sequence (P29597 whole entry): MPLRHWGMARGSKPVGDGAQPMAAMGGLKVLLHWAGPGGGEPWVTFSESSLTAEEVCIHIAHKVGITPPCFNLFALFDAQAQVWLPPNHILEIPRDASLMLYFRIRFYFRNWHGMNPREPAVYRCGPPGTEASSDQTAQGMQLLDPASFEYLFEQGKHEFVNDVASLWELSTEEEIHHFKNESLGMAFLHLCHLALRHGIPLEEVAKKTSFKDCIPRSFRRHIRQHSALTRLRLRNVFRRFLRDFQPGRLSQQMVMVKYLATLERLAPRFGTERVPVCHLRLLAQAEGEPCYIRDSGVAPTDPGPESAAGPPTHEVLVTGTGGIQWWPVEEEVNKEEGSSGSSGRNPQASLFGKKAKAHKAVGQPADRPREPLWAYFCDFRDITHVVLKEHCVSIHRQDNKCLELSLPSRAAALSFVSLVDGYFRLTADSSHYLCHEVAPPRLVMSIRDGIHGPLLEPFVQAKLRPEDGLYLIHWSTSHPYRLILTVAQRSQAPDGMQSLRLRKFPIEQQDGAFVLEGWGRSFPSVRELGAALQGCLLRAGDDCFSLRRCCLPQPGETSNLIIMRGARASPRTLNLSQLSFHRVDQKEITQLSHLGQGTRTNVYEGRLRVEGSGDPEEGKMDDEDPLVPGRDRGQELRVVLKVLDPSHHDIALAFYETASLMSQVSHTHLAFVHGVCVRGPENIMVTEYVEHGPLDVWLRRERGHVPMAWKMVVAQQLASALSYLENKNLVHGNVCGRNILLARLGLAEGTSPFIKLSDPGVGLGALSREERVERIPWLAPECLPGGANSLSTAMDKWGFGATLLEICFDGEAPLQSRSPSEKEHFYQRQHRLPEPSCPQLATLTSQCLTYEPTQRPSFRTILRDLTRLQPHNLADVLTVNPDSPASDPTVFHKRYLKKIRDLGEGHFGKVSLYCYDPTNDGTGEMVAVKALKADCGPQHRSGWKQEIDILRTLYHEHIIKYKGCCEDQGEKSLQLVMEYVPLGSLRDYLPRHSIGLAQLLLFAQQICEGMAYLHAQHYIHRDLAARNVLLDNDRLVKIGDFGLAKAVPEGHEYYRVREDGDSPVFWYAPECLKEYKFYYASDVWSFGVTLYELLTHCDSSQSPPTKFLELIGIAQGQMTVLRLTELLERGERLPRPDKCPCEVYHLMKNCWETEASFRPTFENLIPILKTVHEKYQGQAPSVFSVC
Assay: pSTAT4 Cell Assay (MSD, NK92 cells)
Assay type: cell-based
Details: MSD
pIC50: −log10 of the molar value.
Examples of molecules with documented pIC50 follow.

Example entries begin here.
INSERT INTO results (molecule, endpoint_result) VALUES
  ('COC(C)c1ccc(-c2cnc(NC(C)=O)cc2Nc2cc(C)nc(C34COC(C3)C4)n2)nc1 (stereo not shown)', '≥ 8.00'),
  ('COc1cnc(C(C)(F)F)nc1Nc1cc(NC(C)=O)ncc1-c1ccn(C)n1', '7.00 to 8.00'),
  ('CC(=O)Nc1cc(Nc2cc(C)nc(C(C)(F)F)n2)c(OC[C@H]2CCCO2)cn1 (single isomer, unassigned)', '≥ 8.00');

We now examine a further molecule.
Which pIC50 is reported for this molecule? COc1cnc(NC(C)=O)cc1Nc1nc(C)cc(C(F)(F)F)n1 ≤ 6.00

###

Molecular target: JH2 domain of human Tyk2 (Homo sapiens (Human), UniProt P29597)
Test: JH2 Biochemical Assay (TR-FRET probe displacement)
Type: binding
Settings: JH2 domain of human Tyk2, TR-FRET probe displacement
Description: The inhibitory potency of compounds of the disclosure against the kinase activity of recombinantly generated JH2 domain of human Tyk2 was evaluated in a plate-based assay using a TR-FRET assay platform. […] The TR-FRET signal inversely correlates to the amount of probe displaced by compounds and signal was calculated by taking the ratio of fluorescence at 520 nm and 495 nm. […]
Parameter measured: IC50

INSERT INTO measurements (molecule, target_under_test, parameter_measured, endpoint_result) VALUES
  ('COCCn1ncc(-c2cnc(NC(C)=O)cc2Nc2ccnc(C(C)(F)F)n2)n1 [Example 710]', 'JH2 domain of human Tyk2 (Homo sapiens (Human), UniProt P29597)', 'IC50', '≤ 10 nM');

Which IC50 is reported for this molecule? COCc1cccc(-c2cnc(NC(C)=O)cc2Nc2cc(C)nc(C(C)(F)F)n2)n1 [Example 636] ≤ 10 nM

Also, COc1cc(C(F)(F)F)nc(Nc2cc(NC(C)=O)ncc2OC)n1 [Example 438] please. 100 to 1000 nM

Also, COCCOc1ccc(-c2cnc(NC(C)=O)cc2Nc2cc(C)nc(C(C)(F)F)n2)nc1 [Example 522] please. ≤ 10 nM

Also, CC(=O)Nc1cc(Nc2cc(C)nc(C(C)(F)F)n2)c(OC[C@@H]2CCC[C@H](C)O2)cn1 (stereo in doubt) [Example 442] please. 10 to 100 nM

Also, CC(=O)Nc1cc(Nc2cc(OC3CC3)nc(C(C)(F)F)n2)c(OCc2ccccc2)cn1 [Example 487] please. ≤ 10 nM

Also, CCOc1cnc(NC(C)=O)cc1Nc1ccc(-c2ccn(C)n2)c(OC)n1 [Example 491] please. 10 to 100 nM

Also, CC(=O)Nc1cc(Nc2cc(C)nc(C(C)(F)F)n2)c(OCc2ccn(C)n2)cn1 [Example 475] please. ≤ 10 nM

Also, COc1cnc(NC(C)=O)cc1Nc1cc(OC2CC2)nc(C(F)(F)F)n1 [Example 437] please. 10 to 100 nM

Also, CC(=O)Nc1cc(Nc2ccnc(C(C)(F)F)n2)c(-c2cn(C)c(C#N)n2)cn1 [Example 707] please. ≤ 10 nM

Also, CC(=O)Nc1cc(Nc2cc(C)nc(C(C)(F)F)n2)c(-c2ncc(Cl)cn2)cn1 [Example 669] please. ≤ 10 nM

Also, CC(=O)Nc1cc(Nc2cc(C)nc(C(C)(F)F)n2)c(-c2ccn(C(C)C)n2)cn1 [Example 603] please. ≤ 10 nM

Also, COc1cnc(NC(C)=O)cc1Nc1cc(-c2cnn(CC3CC3)c2)nc(C(C)(F)F)n1 [Example 378] please. ≤ 10 nM

Also, CC(=O)Nc1cc(Nc2cc(C)nc(C(C)(F)F)n2)c(OC[C@@H]2CCC(=O)N2)cn1 [Example 500] please. ≤ 10 nM

Also, [2H]C([2H])([2H])N1CCn2nc(-c3cnc(NC(C)=O)cc3Nc3cc(C)nc(C(C)(F)F)n3)cc2C1 [Example 545] please. ≤ 10 nM

Also, CC(=O)Nc1cc(Nc2cc(C)nc(C(C)(F)F)n2)c(OC[C@H]2CCC[C@@H](C)O2)cn1 (stereo in doubt) [Example 418] please. ≤ 10 nM
